Hey, just so you know, these numbers are from PubChem BioAssay (NCI).

Test system: UACC-257 melanoma
Assay procedure: NCI tumour cell line growth inhibition, 48 h
Quantity measured: TGI

{"columns": ["Compound", "Experimental value"],
 "data": [
  ["Cc1nn(-c2ccccc2)c(C)c1/C=N/N1CCN(Cc2ccccc2)CC1", "> 100 µM"],
  ["N#CC(C#N)=Cc1ccc(Oc2ccccc2)cc1", "> 71.3 µM"],
  ["Cc1ccc(Cc2nn(C)c(=O)n2-n2cccc2)cc1", "> 100 µM"],
  ["N#Cc1nc(NC(=O)c2ccccc2)sc1N", "> 10 µM"],
  ["Cc1nc2sc(C(=O)Nc3cccc(Cl)c3C)c(N)c2cc1C(=O)c1ccccc1", "> 50 µM"],
  ["COc1ccc(C(=O)c2cc(OC)c(OC)c(OC)c2)cc1/C=C/C(=O)c1ccc2c(c1)OCO2", "> 100 µM"],
  ["Cc1[nH]c2ccccc2c1C1=CC(=O)C=CC1=O", "28.6 µM"],
  ["O=C(O)C1CCCCC1C(=O)Nc1nc2ccccc2[nH]1 (configuration not stated)", "> 100 µM"],
  ["COc1cc2c(cc1OC)C1(c3ccccc3)ON=C(c3ccccc3)N1CS2 (configuration not stated)", "> 100 µM"],
  ["O=C1C2C3CCC(C2C(=O)N1CO)C1C2C(=O)N(CO)C(=O)C2C31 (configuration not stated)", "> 100 µM"],
  ["COc1cc2c(cc1OC)CN1CCc3ccccc3CC1C2 (configuration not stated)", "> 100 µM"],
  ["COc1ccc(NC(=O)CC(=O)n2nc(-c3ccccc3)c(N=Nc3ccccc3C)c2-c2ccccc2)cc1", "> 100 µM"],
  ["CC(C)NCCCCCNc1cc(O)cc2cccnc12", "> 75.1 µM"],
  ["COc1ccc2c(c1)c(-c1nc(-c3cn(C)c4ncccc34)cs1)cn2CCCCN1CCOCC1", "3.28 µM"],
  ["Cc1cc2c(=O)c3ccccc3oc2c(C#N)c1C", "> 100 µM"],
  ["CCCCCCCCCCNC(=S)OCCCC", "49.3 µM"],
  ["NS(=O)(=O)c1ccc(N=Nc2nc3[nH]cnc(=S)c3[nH]2)cc1", "> 87.6 µM"],
  ["NCC(=O)NC(CO)C(=O)O (configuration not stated)", "> 100 µM"],
  ["COc1cc(C2C(C(=O)OCc3ccccc3)=C(C)NC(C)=C2C(=O)OCc2ccccc2)cc(OC)c1OC", "> 100 µM"],
  ["CS(=O)(=O)c1ccc(-c2[nH]c3ccc(F)cc3c2/C=N/NC(N)=S)cc1", "> 100 µM"],
  ["COc1cc(S(=O)(=O)Nc2ccc(-c3csc(/N=C\\C=C\\c4ccccc4)n3)cc2)ccc1Cl", "> 100 µM"],
  ["O=[N+]([O-])c1cc([N+](=O)[O-])c(C(Cl)C(Cl)c2ccccc2)cc1C(Cl)C(Cl)c1ccccc1 (configuration not stated)", "4.09 µM"],
  ["Nc1ncnc2c1c(C(=O)NO)cn2C1OC(CO)C(O)C1O (configuration not stated)", "3.52 µM"],
  ["CCN(CC)c1nc(=O)c(C(=O)C(C)(C)C)c(C(C)(C)C)o1", "> 100 µM"],
  ["Cc1ccc(C(O)/C(=N/N)c2nc3ccc([N+](=O)[O-])cc3[nH]c2=O)cc1 (configuration not stated)", "> 100 µM"],
  ["COc1cc(/C=C2/C(=O)N=C(NC(C)=O)N2C)ccc1OC(C)=O", "> 100 µM"],
  ["C=CCCC(O)c1ccc(CCCCCCCCCCC)o1 (configuration not stated)", "33.9 µM"],
  ["Nc1ccc(-c2nc3ccccc3s2)cc1F", "> 100 µM"],
  ["COc1cc([N+](=O)[O-])c(OC)cc1-c1nc2n(c1/C(N)=N/C(=N)N)CCS2", "57 µM"],
  ["CC(C)N(C(=O)C12C3C4C5C3C1(C#N)C5C42)C(C)C (configuration not stated)", "> 100 µM"],
  ["O=c1c2ccccc2n2n1Cc1ccccc1C2", "> 100 µM"],
  ["CN(C)C(=O)C(F)(F)C(c1ccc(C(F)(F)F)cc1)C1C(=O)N(C)C(=O)N(C)C1=O (configuration not stated)", "> 100 µM"]
]}
